The reader will find reported normalized growth values listed item by item below.
assay: chemical genetic growth profiling, strain panel (AID 1159580);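 note: tested at 20 µM; growth read once vehicle control cultures reached saturation at 30 °C; 1 = growth at the plate median or of vehicle wells; lower values mean less growth of the strain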; settings: S. cerevisiae deletion strains, growth OD, locus YDR388W, stronger effect = lower value
Among all 5,500 compounds or so, about 2,000 (36%) were called active. Not shown: some 18% with an inconclusive outcome. The list shows a part of the results.
READOUT_KIND: normalized growth

molecule=O=C(CCCN1CCC2(CC1)C(=O)NCN2c1ccccc1)c1ccc(F)cc1 reported="0.996 (inactive)"
molecule="CCC(=O)OCC(=O)C1(OC(=O)CC)C(C)CC2C3CCC4=CC(=O)C=CC4(C)C3(Cl)C(O)CC21C (configuration not stated)" reported="0.99 (inactive)"
molecule=Cc1cc(N)c2ccccc2[n+]1CCCCCCCCCC[n+]1c(C)cc(N)c2ccccc21 reported="0.0589 (active)"
molecule="C[C@H]1O[C@@H](O[C@H]2[C@@H](O)C[C@H](O[C@H]3[C@@H](O)C[C@H](O[C@H]4CC[C@]5(C)C6CC[C@]7(C)[C@@H](C8=CC(=O)OC8)CC[C@]7(O)C6CC[C@@H]5C4)O[C@@H]3C)O[C@@H]2C)C[C@H](O)[C@@H]1O (some centres not stated)" reported="0.986 (inactive)"
molecule="CO[C@H]1[C@H](O)[C@@H](O[C@H]2CC[C@]3(C=O)C4CC[C@]5(C)[C@@H](C6=CC(=O)OC6)CC[C@]5(O)C4CC[C@@H]3C2)O[C@@H](C)[C@@H]1O (some centres not stated)" reported="0.999 (inactive)"
molecule="CC(=O)O[C@@H]1CC2C(C)(C)CCC[C@]2(C)C2CC[C@]3(C)C(=CC(=O)O[C@H]3c3ccoc3)[C@@]21C (some centres not stated)" reported="1.01 (inactive)"
molecule="C[C@@H]1CCC2[C@](C)(CO)[C@@H](O)CC[C@]2(C)[C@@]12CC[C@@](CO)(CCO)O2 (some centres not stated)" reported="0.974 (inactive)"
molecule="NCC(O)CC(=O)O (configuration not stated)" reported="0.999 (inactive)"
molecule=COc1cc(O)c2c(=O)cc(-c3ccc(OC)c(-c4c(O)cc(O)c5c(=O)cc(-c6ccc(O)cc6)oc45)c3)oc2c1 reported="0.986 (inactive)"
molecule=COc1ccc(-c2cc(=O)c3c(O)cc(O)c(-c4cc(-c5cc(=O)c6c(O)cc(O)cc6o5)ccc4OC)c3o2)cc1 reported="1 (inactive)"
molecule=CN(C)C(=O)C(CCN1CCC(O)(c2ccc(Cl)cc2)CC1)(c1ccccc1)c1ccccc1 reported="1.02 (inactive)"
molecule=COC(=O)NC(=S)Nc1ccccc1NC(=S)NC(=O)OC reported="1.02 (inactive)"
molecule="CO[C@@H]1C[C@H](O[C@H]2CC[C@]3(C)C4CC[C@]5(C)[C@@H](C6=CC(=O)OC6)CC[C@]5(O)[C@@H]4CC[C@]3(O)C2)O[C@H](C)[C@@H]1O (some centres not stated)" reported="1 (inactive)"
molecule=COc1cc(C)c2c(=O)c3c(O)cc(OC)cc3oc2c1 reported="0.981 (inactive)"
molecule=COc1ccc(-c2cc(=O)c3c(O)cc(O)cc3o2)cc1O reported="0.993 (inactive)"
molecule=CN(C)CC[C@H](c1ccc(Cl)cc1)c1ccccn1 reported="0.991 (inactive)"
molecule="CC(=O)OC1CC[C@@]2(C)C(CCC3C2CC[C@]2(C)C(C4=CC(=O)OC4)C(OC(C)=O)CC32O)C1 (some centres not stated)" reported="1.01 (inactive)"
molecule=COC1=CC(=O)C=C(OC)C1=O reported="0.983 (inactive)"
molecule="CCCCC(=O)O[C@]1(C(=O)CO)[C@@H](C)CC2C3CCC4=CC(=O)C=C[C@]4(C)[C@@]3(F)C(O)C[C@@]21C (some centres not stated)" reported="0.982 (inactive)"
molecule="COC1C(O)C(O[C@H]2CC[C@]3(C=O)C4C(CC[C@]3(O)C2)[C@@]2(O)CC[C@H](C3=CC(=O)OC3)[C@@]2(C)C[C@H]4OC(C)=O)OC(C)C1OC(C)=O (some centres not stated)" reported="1.07 (inactive)"
molecule="C[C@@H]1O[C@@H](O[C@H]2CC[C@]3(C=O)C4CC[C@]5(C)[C@@H](C6=CC(=O)OC6)CC[C@]5(O)C4CC[C@]3(O)C2)[C@H](O)[C@H](O)[C@H]1O (some centres not stated)" reported="0.999 (inactive)"
molecule="CCOC(=O)CC(SP(=S)(OC)OC)C(=O)OCC (configuration not stated)" reported="1.01 (inactive)"
